Experimental Protocol: Cytotoxicity against human HepG2 cells assessed as reduction in cell viability measured after 48 hrs by CCK8 assay
Assay type: toxicity, cell-based
Property Label: CC50 at 48 h

[[record]]
structure_smiles = "C=C[C@]1(C)C[C@@H](OC(=O)CSc2nc(-c3cc[n+](Cc4ccc(OC)cc4)cc3)cs2)[C@]2(C)[C@H](C)CC[C@]3(CCC(=O)[C@H]32)[C@@H](C)[C@@H]1O.[Br-]"
property_label = "CC50 at 48 h"
measurement = "> 100 µM"

[[record]]
structure_smiles = "C=C[C@]1(C)C[C@@H](OC(=O)CSC(C)(C)CNC(=O)[C@H](N)C(C)C)[C@]2(C)[C@H](C)CC[C@]3(CCC(=O)[C@H]32)[C@@H](C)[C@@H]1O"
property_label = "CC50 at 48 h"
measurement = "87.3 µM"

[[record]]
structure_smiles = "C=C[C@]1(C)C[C@@H](OC(=O)CSc2nc(-c3cc[n+](Cc4ccc(C)cc4)cc3)cs2)[C@]2(C)[C@H](C)CC[C@]3(CCC(=O)[C@H]32)[C@@H](C)[C@@H]1O.[Br-]"
property_label = "CC50 at 48 h"
measurement = "89.8 µM"

[[record]]
structure_smiles = "C=C[C@]1(C)C[C@@H](OC(=O)CS[C@@H]2C[C@H]3CC[C@@H](C2)N3C)[C@]2(C)[C@H](C)CC[C@]3(CCC(=O)[C@H]32)[C@@H](C)[C@@H]1O"
property_label = "CC50 at 48 h"
measurement = "76.5 µM"

[[record]]
structure_smiles = "Br.C=C[C@]1(C)C[C@@H](OC(=O)CSc2nc(-c3cc[n+](Cc4ccc([N+](=O)[O-])cc4)cc3)cs2)[C@]2(C)[C@H](C)CC[C@]3(CCC(=O)[C@H]32)[C@@H](C)[C@@H]1O"
property_label = "CC50 at 48 h"
measurement = "75.8 µM"


###

Tested on: Salmonella enterica
Experimental Protocol: Antibacterial activity against Salmonella enterica ATCC 14028 assessed as inhibition of bacterial growth incubated for 24 hrs by broth microdilution method
Assay type: functional
Property Label: log10 of MIC (log10 of the value in µg/mL)

[[record]]
structure_smiles = "C=C[C@]1(C)C[C@@H](OC(=O)CSC(C)(C)CNC(=O)[C@H](N)C(C)C)[C@]2(C)[C@H](C)CC[C@]3(CCC(=O)[C@H]32)[C@@H](C)[C@@H]1O"
measured_on = "Salmonella enterica"
measurement = 1.81

[[record]]
structure_smiles = "C=C[C@]1(C)C[C@@H](OC(=O)CSc2nc(-c3cc[n+](Cc4ccc(C(C)(C)C)cc4)cc3)cs2)[C@]2(C)[C@H](C)CC[C@]3(CCC(=O)[C@H]32)[C@@H](C)[C@@H]1O.[Br-]"
measured_on = "Salmonella enterica"
measurement = 0.30

[[record]]
structure_smiles = "C=C[C@]1(C)C[C@@H](OC(=O)CS[C@@H]2C[C@H]3CC[C@@H](C2)N3C)[C@]2(C)[C@H](C)CC[C@]3(CCC(=O)[C@H]32)[C@@H](C)[C@@H]1O"
measured_on = "Salmonella enterica"
measurement = 2.11

[[record]]
structure_smiles = "C=C[C@]1(C)C[C@@H](OC(=O)CSc2nnc(-c3cc[n+](Cc4ccc(C#N)cc4)cc3)o2)[C@]2(C)[C@H](C)CC[C@]3(CCC(=O)[C@H]32)[C@@H](C)[C@@H]1O.[Br-]"
measured_on = "Salmonella enterica"
measurement = 1.51

[[record]]
structure_smiles = "Br.C=C[C@]1(C)C[C@@H](OC(=O)CSc2nc(-c3cc[n+](Cc4ccc([N+](=O)[O-])cc4)cc3)cs2)[C@]2(C)[C@H](C)CC[C@]3(CCC(=O)[C@H]32)[C@@H](C)[C@@H]1O"
measured_on = "Salmonella enterica"
measurement = 0.30

[[record]]
structure_smiles = "C=C[C@]1(C)C[C@@H](OC(=O)CSc2nc(-c3cc[n+](Cc4ccc5ccccc5c4)cc3)cs2)[C@]2(C)[C@H](C)CC[C@]3(CCC(=O)[C@H]32)[C@@H](C)[C@@H]1O.[Br-]"
measured_on = "Salmonella enterica"
measurement = 0.60

[[record]]
structure_smiles = "C=C[C@]1(C)C[C@@H](OC(=O)CSc2nnc(-c3cc[n+](Cc4ccccc4)cc3)o2)[C@]2(C)[C@H](C)CC[C@]3(CCC(=O)[C@H]32)[C@@H](C)[C@@H]1O.[Br-]"
measured_on = "Salmonella enterica"
measurement = 1.51

[[record]]
structure_smiles = "Br.C=C[C@]1(C)C[C@@H](OC(=O)CSc2nnc(-c3cc[n+](Cc4ccc([N+](=O)[O-])cc4)cc3)o2)[C@]2(C)[C@H](C)CC[C@]3(CCC(=O)[C@H]32)[C@@H](C)[C@@H]1O"
measured_on = "Salmonella enterica"
measurement = 2.11

[[record]]
structure_smiles = "C=C[C@]1(C)C[C@@H](OC(=O)CSc2nc(-c3cc[n+](Cc4cc(OC)cc(OC)c4)cc3)cs2)[C@]2(C)[C@H](C)CC[C@]3(CCC(=O)[C@H]32)[C@@H](C)[C@@H]1O.[Br-]"
measured_on = "Salmonella enterica"
measurement = 1.20

[[record]]
structure_smiles = "C=C[C@]1(C)C[C@@H](OC(=O)CSc2nc(-c3cc[n+](CCCCCCCCCC)cc3)cs2)[C@]2(C)[C@H](C)CC[C@]3(CCC(=O)[C@H]32)[C@@H](C)[C@@H]1O.[Br-]"
measured_on = "Salmonella enterica"
measurement = 0.00


Measured values drawn from ChEMBL document CHEMBL5338747 for this set.
